Data credit: PubChem BioAssay (NCI)

# System: U251 CNS
# assay_summary: NCI-60 one-dose screen, 48 h (100 = growth as untreated, 0 = no growth, -100 = all killed)
# measurement_conditions: 10 µM unless noted
Compounds without any hit were thinned out: in the full panel of roughly 83,000, 20% have a hit.
Decide using growth alone. Strictly below 20%: 1 (yes). Equal to or above 20%: 0 (no).

- compound: "Cc1ccc2nc(-[n+]3cc4ccccc4cc3C)ccc2c1"
  category: "0 (no)"
- compound: "O=C1c2ccccc2C(=O)c2sc(Nc3cccc(Cl)c3)nc21"
  category: "1 (yes)"
- compound: "COc1ccc(N=N/N=c2\\sc3cc(OC)ccc3n2C)cc1"
  category: "0 (no)"
- compound: "CC(=Nc1ccc(N(C)C)cc1)c1ccccc1"
  category: "0 (no)"
- compound: "Oc1c(Br)cc(Cl)cc1C(c1cc(Cl)cc(Br)c1O)C(Cl)(Cl)Cl"
  category: "1 (yes)"
- compound: "CN=C(N)N/N=C(\\C)c1ccc2c(c1)Cc1cc(/C(C)=N/NC(N)=NC)ccc1-2"
  category: "1 (yes)"
- compound: "Oc1ccc(/C=N/NC(=S)Nc2ccccc2)nc1"
  category: "1 (yes)"
- compound: "CCCCCCCCCCCCCCNCc1ccccc1"
  category: "0 (no)"
- compound: "CCN1/C(=C\\c2cc[n+](CC)c3ccccc23)C=Cc2ccccc21"
  category: "1 (yes)"
- compound: "Cc1cc2nc(CS)[nH]c2cc1C"
  category: "0 (no)"
- compound: "O=C(Nc1ccccc1)c1cc(Cl)ccc1O"
  category: "0 (no)"
- compound: "CCC(c1cccc(O)c1)C(CC)c1cccc(O)c1 (configuration not stated)"
  category: "0 (no)"

* * *

# System: MDA-MB-435 melanoma
# assay_summary: NCI-60 one-dose screen, 48 h
# measurement_conditions: 10 µM unless noted
# Procedure: Growth inhibition of the MDA-MB-435 human Melanoma tumor cell line is measured as a screen for anti-cancer activity. Cells are grown in 96 well plates and exposed to the test compound for 48 hours. Compounds are tested at a single concentration, which is 10^-5 M for most compounds. The reported endpoint is percent growth (GI% or GIPRCNT), where numbers from 0 - 100% represent growth inhibition, and numbers from -100% - 0 represent cell death. […]
Compounds without any hit were thinned out: in the full panel of roughly 83,000, 20% have a hit. Activity calls are given as the source filed them. Rule for the calls: active = growth percent below 10; inactive = the rest.
Possible outcomes: Y (active), N (inactive)

- molecule: "CC(=Nc1ccc(N(C)C)cc1)c1ccccc1"
  category: "N"
- molecule: "CCCCCC(CCCCC)C(=O)O"
  category: "N"
- molecule: "O=C(CC1(O)C(=O)Nc2c(Cl)ccc(Cl)c21)c1ccc(Cl)cc1Cl (stereo not given)"
  category: "N"
- molecule: "COc1ccc2nc3cc(Cl)ccc3c(NCCNc3c4ccc(Cl)cc4nc4ccc(OC)cc34)c2c1"
  category: "Y"
- molecule: "COc1ccc(N=N/N=c2\\sc3cc(OC)ccc3n2C)cc1"
  category: "N"
- molecule: "Cc1cc(C(C)(CC(C)C)c2ccc(O)c(C)c2)ccc1O"
  category: "N"
- molecule: "CCC(c1cccc(O)c1)C(CC)c1cccc(O)c1 (stereo not given)"
  category: "Y"
- molecule: "COc1cc(NS(C)(=O)=O)ccc1Nc1c2ccccc2nc2ccccc12"
  category: "N"
- molecule: "O=C1N[C@H]2[C@H](CS[C@H]2CCCCC(=O)N(CCP(c2ccccc2)c2ccccc2)CCP(c2ccccc2)c2ccccc2)N1"
  category: "N"
- molecule: "Cn1c2ccccc2c2nnc(N/N=C/c3ccccn3)nc21"
  category: "N"
- molecule: "CCC(=O)Sc1ccccc1C(=O)Nc1ccc(Cl)cc1"
  category: "N"
- molecule: "O=C1C2=C(Nc3cc([N+](=O)[O-])ccc3N2)OC1c1c2ccccc2cc2ccccc12 (stereo not given)"
  category: "N"
- molecule: "O=Nc1ccccc1N=O"
  category: "N"
- molecule: "CCCCCCCCCCCCCCCC[N+](C)(CCO)Cc1cnc[nH]1 (stereo not given)"
  category: "Y"
- molecule: "C/C=C1\\SC(=S)NC1=O"
  category: "N"
- molecule: "NC(=S)N/N=C\\c1nccc2c(C(F)(F)C(F)(F)C(F)(F)F)cccc12"
  category: "N"
- molecule: "CC1(C)CC([P+](c2ccccc2)(c2ccccc2)c2ccccc2)=NN1"
  category: "N"
- molecule: "CC1OC(OC2C(OC3CCC4(C)C(CCC5(C)C4CC=C4C6CC(C)(C)CCC6(CO)C(O)CC45C)C3(C)C)OC(C(=O)O)C(OC3OC(COC4OC(CO)C(O)C(O)C4O)C(O)C(O)C3O)C2O)C(O)C(O)C1O (stereo not given)"
  category: "Y"
- molecule: "NC(=O)/C=C/C(=O)c1c(Cl)cccc1Cl"
  category: "Y"
- molecule: "Cc1ccc(C(=Nc2ccccc2)N=P(c2ccccc2)(c2ccccc2)c2ccccc2)cc1"
  category: "Y"

* * *

# Tested on: SK-OV-3 ovarian
# assay_summary: NCI-60 one-dose screen, 48 h (100 = growth as untreated, 0 = no growth, -100 = all killed)
# measurement_conditions: 10 µM unless noted
The panel holds about 83,000 compounds, 20% with a hit somewhere; the sample as a whole holds those more often.
growth listing for selected compounds.
observable: growth (%)

- compound: "O=C(/C=C/C=C/c1ccccc1)c1ccco1"
  unit_string: "%"
  observed_value: 105
- compound: "Cc1ccc(C(=Nc2ccccc2)N=P(c2ccccc2)(c2ccccc2)c2ccccc2)cc1"
  unit_string: "%"
  observed_value: -66.3
- compound: "CC(C)c1ccc2nc3ccc(C(=O)NCCN4CCN(c5ccccc5)CC4)cn3c(=O)c2c1"
  unit_string: "%"
  observed_value: 93.4
- compound: "Cc1ccnc2c1ccc1c(C)ccnc12"
  unit_string: "%"
  observed_value: 3.59
- compound: "Nc1nc(N)c2c(ccc3c2ccn3Cc2cccc([N+](=O)[O-])c2)n1"
  unit_string: "%"
  observed_value: -100
- compound: "O=C(CC1(O)C(=O)Nc2c(Cl)ccc(Cl)c21)c1ccc(Cl)cc1Cl (centres undefined)"
  unit_string: "%"
  observed_value: 84.9
- compound: "CNc1ccc2c(c1)c1ccccc1n2C"
  unit_string: "%"
  observed_value: 106
- compound: "O=C1OCc2cccc3cccc1c23"
  unit_string: "%"
  observed_value: 112
- compound: "C=C(Cl)C(=NC(C)(C)C)Nc1ccccc1C"
  unit_string: "%"
  observed_value: 105

* * *

growth listing for selected molecules.
# Tested on: BT-549 breast
# assay_summary: NCI-60 one-dose screen, 48 h (100 = growth as untreated, 0 = no growth, -100 = all killed)
# measurement_conditions: 10 µM unless noted
This is part of a sample that, as a whole, favours compounds with a hit. Of some 83,000 tested, about 20% had one in any assay. Calls of active or inactive are those of the source. The calls were made as follows: active = growth percent below 10; inactive = the rest.

- molecule: "CCCCCCCCCCCCCCCCOP(=O)([O-])OCC[N+](C)(C)C"
  growth: "45% (inactive)"
- molecule: "CCCCCCCCCCCCCCNCc1ccccc1"
  growth: "96.6% (inactive)"
- molecule: "COc1ccc(N=N/N=c2\\sc3cc(OC)ccc3n2C)cc1"
  growth: "95.5% (inactive)"
- molecule: "CN=C(N)N/N=C(\\C)c1ccc2c(c1)Cc1cc(/C(C)=N/NC(N)=NC)ccc1-2"
  growth: "49.6% (inactive)"
- molecule: "S=C(N/N=C/c1ccccn1)Nc1ccccn1"
  growth: "38.1% (inactive)"
- molecule: "c1ccc2c(c1)Nc1cc3ccccc3cc1N2"
  growth: "33% (inactive)"
- molecule: "O=C(CC1(O)C(=O)Nc2c(Cl)ccc(Cl)c21)c1ccc(Cl)cc1Cl (configuration not stated)"
  growth: "90.2% (inactive)"
- molecule: "CNC(=O)N/N=C/c1ccc([N+](=O)[O-])o1"
  growth: "110% (inactive)"
- molecule: "O=C(/C=C\\c1cc(Br)ccc1O)/C=C/c1cc(Br)ccc1O"
  growth: "-12.3% (active)"
- molecule: "Nc1ccc(SSc2ccc(N)cc2)cc1"
  growth: "66.6% (inactive)"
- molecule: "COc1ccc2nc3cc(Cl)ccc3c(NCCNc3c4ccc(Cl)cc4nc4ccc(OC)cc34)c2c1"
  growth: "-76.6% (active)"
- molecule: "COC(=O)c1nc(=S)[nH]c(C(=O)OC)c1C(=O)c1ccc2ccccc2c1"
  growth: "131% (inactive)"
- molecule: "O=C1c2ccccc2C(=O)c2sc(Nc3cccc(Cl)c3)nc21"
  growth: "61.5% (inactive)"
- molecule: "CC1OC2CC(=O)OC2C2=C1C(=O)c1c(O)cccc1C2=O (configuration not stated)"
  growth: "-98.5% (active)"
- molecule: "O=C(Nc1cccc(Br)c1)Oc1ccc(Cl)c2cccnc12"
  growth: "4.77% [100 µM] (active)"
- molecule: "O=C1C2=C(Nc3cc([N+](=O)[O-])ccc3N2)OC1c1c2ccccc2cc2ccccc12 (configuration not stated)"
  growth: "23.3% (inactive)"
- molecule: "COc1cc(NS(C)(=O)=O)ccc1Nc1c2ccccc2nc2ccccc12"
  growth: "20.2% [2.5 µM] (inactive)"
- molecule: "CC(C)(C)c1ccc(O)c(C2CCCCC2)c1"
  growth: "127% (inactive)"
- molecule: "O=C1c2ccccc2C(=O)N1c1ccccc1"
  growth: "107% (inactive)"
- molecule: "Cc1ccc(N=C=C(c2ccccc2)c2ccccc2)cc1"
  growth: "91.9% (inactive)"
- molecule: "N#CSCc1c(Cl)cccc1Cl"
  growth: "88.4% (inactive)"
- molecule: "CCN(CC)CC(C)(C)C(=O)/C=C/c1ccc(Cl)c(Cl)c1"
  growth: "16.4% (inactive)"
- molecule: "CN1c2ccccc2C(C)(C)C12C=Cc1cc(O)ccc1O2 (configuration not stated)"
  growth: "33.2% (inactive)"
- molecule: "Oc1ccc(/C=N/NC(=S)Nc2ccccc2)nc1"
  growth: "44.8% (inactive)"
- molecule: "N#CSCc1ccc(CSC#N)c(Cl)c1"
  growth: "56.5% (inactive)"
- molecule: "COc1cc(/C=C/C(C)=O)ccc1O"
  growth: "104% (inactive)"
- molecule: "Cc1c2ccccc2c(C)c2c1ccc1ccccc12"
  growth: "98.8% (inactive)"
- molecule: "C/C=C1\\SC(=S)NC1=O"
  growth: "95.7% (inactive)"
- molecule: "Cc1ccnc(NC(c2ccccc2)c2ccc3cccnc3c2O)c1 (configuration not stated)"
  growth: "57.1% (inactive)"
- molecule: "O=C(Nc1ccc(F)cc1)ON=C1CCCCC1"
  growth: "106% [100 µM] (inactive)"
- molecule: "COc1ccccc1OC(=O)Oc1ccccc1OC"
  growth: "97% (inactive)"
- molecule: "Oc1c(Br)c(Br)c(O)c(Br)c1Br"
  growth: "95.3% (inactive)"
- molecule: "Cc1ccc(C(=Nc2ccccc2)N=P(c2ccccc2)(c2ccccc2)c2ccccc2)cc1"
  growth: "-26.9% (active)"
- molecule: "Cn1c2c(c3ccccc31)CCN1C[C@@H]3CCCC[C@H]3C[C@@H]21"
  growth: "22.5% (inactive)"
- molecule: "N[C@H](C(=O)O)[C@@H]1CC(Cl)=NO1"
  growth: "27.3% [20 µM] (inactive)"
- molecule: "CCN(CC)CCOc1ccc(-c2nc3cc(Cl)ccc3s2)cc1"
  growth: "68% (inactive)"
- molecule: "O=Nc1ccccc1N=O"
  growth: "92.7% (inactive)"
- molecule: "COc1ccccc1/C=C\\C(=O)c1ccccc1"
  growth: "83.2% (inactive)"
- molecule: "N#Cc1ccc([N+](=O)[O-])o1"
  growth: "101% (inactive)"
- molecule: "N#CSCc1ccc(Cl)c(CSC#N)c1"
  growth: "14.1% (inactive)"
- molecule: "O=[N+]([O-])c1ccc(N=Nc2ccc(O)cc2O)cc1"
  growth: "64.5% (inactive)"
- molecule: "CCC(c1cccc(O)c1)C(CC)c1cccc(O)c1 (configuration not stated)"
  growth: "66% (inactive)"
- molecule: "Cc1ccnc2c1ccc1c(C)ccnc12"
  growth: "23.2% (inactive)"
- molecule: "NC(=S)N/N=C\\c1nccc2c(C(F)(F)C(F)(F)C(F)(F)F)cccc12"
  growth: "41.4% (inactive)"
- molecule: "CCCCCCC(C)c1ccccc1O (configuration not stated) (tested in a mixture with another compound)"
  growth: "108% (inactive)"
- molecule: "CCOC(=O)/C(=C\\c1ccc(-c2ccccc2)cc1)C(C)=O"
  growth: "98.8% (inactive)"
- molecule: "Cc1ccc2nc(-[n+]3cc4ccccc4cc3C)ccc2c1"
  growth: "0.0135% (active)"
